tested on: UACC-257 melanoma; assay: NCI-60 one-dose screen, 48 h (100 = growth as untreated, 0 = no growth, -100 = all killed); settings: 10 µM unless noted
About 83,000 compounds went through this panel and 20% of them were active in at least one assay; those are over-represented in the sample as a whole.
I'd appreciate it if you marked entries fulfilled when growth is lower than 60% and not fulfilled when it is not.

[[record]]
molecule = "NC(=S)N/N=C/c1cc(-c2cccc(N)c2)ccn1"
assigned_label = "fulfilled"

[[record]]
molecule = "O=C(O)c1ccc2c(c1Sc1ccccc1)C(=O)c1ccccc1C2=O"
assigned_label = "not fulfilled"

[[record]]
molecule = "COc1ccc(-c2nn(-c3ccccc3)cc2/C=C2\\SC(=O)NC2=O)cc1"
assigned_label = "not fulfilled"

[[record]]
molecule = "CCOC(=O)C(CC)n1c(=O)c2cc(OC)c(OC)cc2c2cnc3[nH]ccc3c21 (stereo unspecified)"
assigned_label = "not fulfilled"

